Attribution: paper PMC11203657

molecular target: PhnX19-II (Achromobacter insolitus); construct: native, purified from wild-type strain, untagged; homodimer; MALDI match to OAD13647.1; assay: inhibition kinetics, ADH/NADH-coupled PAA hydrolysis, vector method; assay type: biochemical; details: substrate PAA 0.1-5 mM, pH 7.5, 10 mM MgCl2, 25 °C; uncompetitive inhibitor; read-out: Effectors / GP
Attribute Measured: Ki (mM)
Respond numerically; units are mM and should not be typed.

Enquiry: Write down Ki measured for item O=C(O)CNCP(=O)(O)O [GP, N-phosphonomethylglycine]
Return: 5.4

====

Biological target: PhnX19-II (Achromobacter insolitus, UniProt Z9I4E4M620)
Construct: native, purified from wild-type strain, untagged; homodimer; MALDI match to OAD13647.1
Assay: inhibition kinetics, ADH/NADH-coupled PAA hydrolysis, vector method
Type: biochemical
Details: substrate PAA 0.1-5 mM, pH 7.5, 10 mM MgCl2, 25 °C; competitive inhibitor; read-out: Effectors / 2-AEP
From the text: inhibition kinetics, ADH/NADH-coupled PAA hydrolysis, vector method on PhnX19-II
Attribute Measured: Ki
Value and unit, in that order.

Enquiry: Write down Ki measured for item NCCP(=O)(O)O
Return: 2480 µM

====

target: PhnX19-II (Achromobacter insolitus, UniProt Z9I4E4M620); construct: native, purified from wild-type strain, untagged; homodimer; MALDI match to OAD13647.1; test: inhibition kinetics, ADH/NADH-coupled PAA hydrolysis, vector method; type: biochemical; conditions: substrate PAA 0.1-5 mM, pH 7.5, 10 mM MgCl2, 25 °C; noncompetitive in table, uncompetitive in text; read-out: Effectors / 2,4-DNPA
Attribute Measured: Ki (µM)
Respond numerically; units are µM and should not be typed.

Enquiry: Write down Ki measured for item CC(=O)Oc1ccc([N+](=O)[O-])cc1[N+](=O)[O-] [2,4-DNPA, 2,4-dinitrophenyl acetate]
Return: 760
